Each record here notes measured Bmax.
Biological target: T1, rhNav1.7α + β1-β2-β3 (rhesus Nav1.7α co-expressed with Navβ1, Navβ2 and Navβ3 on cells) (rhesus monkey (α subunit); β subunits …)
T1 construct: also called rhNav1.7-beta1-beta2-beta3; CHO FlpIn rhNav1.7α + β1-β2-β3
Assay: binding FACS, CHO FlpIn cells
Dear colleague, please return just the value in %, with no unit written.

Known results for binders:
Binder	Bmax [%]
F010301846 (VHH, also called F0103387G04(L11V, A12V, K33R, R39Q, S50Y, S56D, S79Y, T83R, V89L, N93R)) VHH: EVQLVESGGGVVQPGGSLRLSCAASGPVFNINRMAWYRQAPGKQRELVAYVTPTGDISYTDSVKGRFTISRDGSKRWYLQMNSLRPEDTALYYCRALLQPDSYSNTRTYWGQGTLVTVSS	100
F010302371 (VHH, also called F0103387G04(L11V, A12V, K33R, R39Q, S50Y, S56D, T60A, G73R, W78V, S79Y, T83R, V89L, N93R, D99N, S100V, N100cI)) VHH: EVQLVESGGGVVQPGGSLRLSCAASGPVFNINRMAWYRQAPGKQRELVAYVTPTGDISYADSVKGRFTISRDRSKRVYLQMNSLRPEDTALYYCRALLQPNVYSITRTYWGQGTLVTVSS	100
F010301866 (VHH, also called F0103387G04(L11V, A12V, K33R, R39Q, S50Y, S56D, T60A, R76N, W78V, S79Y, T83R, V89L, N93R)) VHH: EVQLVESGGGVVQPGGSLRLSCAASGPVFNINRMAWYRQAPGKQRELVAYVTPTGDISYADSVKGRFTISRDGSKNVYLQMNSLRPEDTALYYCRALLQPDSYSNTRTYWGQGTLVTVSS	100
F010302384 (VHH, also called F0103387G04(L11V, A12V, K33R, R39Q, S50Y, S56D, T60A, D72G, W78V, S79Y, T83R, V89L, N93R, D99S, N100cI)) VHH: EVQLVESGGGVVQPGGSLRLSCAASGPVFNINRMAWYRQAPGKQRELVAYVTPTGDISYADSVKGRFTISRGGSKRVYLQMNSLRPEDTALYYCRALLQPSSYSITRTYWGQGTLVTVSS	100
F010302330 (VHH, also called F0103387G04(L11V, A12V, K33R, R39Q, S50Y, S56D, T60A, G73A, W78V, S79Y, T83R, V89L, N93R, S100R)) VHH: EVQLVESGGGVVQPGGSLRLSCAASGPVFNINRMAWYRQAPGKQRELVAYVTPTGDISYADSVKGRFTISRDASKRVYLQMNSLRPEDTALYYCRALLQPDRYSNTRTYWGQGTLVTVSS	23
F010301840 (VHH, also called F0103387G04(R76_V78insT)(L11V, A12V, K33R, R39Q, S50Y, S56D, T83R, V89L, N93R)) VHH: EVQLVESGGGVVQPGGSLRLSCAASGPVFNINRMAWYRQAPGKQRELVAYVTPTGDISYTDSVKGRFTISRDGSKRTWSLQMNSLRPEDTALYYCRALLQPDSYSNTRTYWGQGTLVTVSS	50
F010301841 (VHH, also called F0103387G04(L11V, A12V, K33R, R39Q, S50Y, S56D, T83R, V89L, N93R)) VHH: EVQLVESGGGVVQPGGSLRLSCAASGPVFNINRMAWYRQAPGKQRELVAYVTPTGDISYTDSVKGRFTISRDGSKRWSLQMNSLRPEDTALYYCRALLQPDSYSNTRTYWGQGTLVTVSS	100

Please give the documented Bmax of F010301842 (VHH, also called F0103387G04(L11V, A12V, K33R, R39Q, S50Y, S56D, T60A, T83R, V89L, N93R)) VHH: EVQLVESGGGVVQPGGSLRLSCAASGPVFNINRMAWYRQAPGKQRELVAYVTPTGDISYADSVKGRFTISRDGSKRWSLQMNSLRPEDTALYYCRALLQPDSYSNTRTYWGQGTLVTVSS 100
